system: SW-620 colon; assay: NCI tumour cell line growth inhibition, 48 h
readout_label: TGI

Cc1ccc(S(=O)(=O)CC2(Br)CCc3ccccc3C2=O)cc1 (stereo not drawn)    > 100 µM
COc1ccc(-c2nc3sccn3c2-c2ccnc(NCCCNS(=O)(=O)c3ccc(F)cc3)n2)cc1    44.4 µM

Reported TGI ( COC(=O)N/N=C(/c1nc2ccc([N+](=O)[O-])cc2[nH]c1=O)C(O)c1ccc(OC)c(OC)c1 (stereo not drawn) ) = > 100 µM

Entry ClCCCCOC1CCCCO1 (stereo not drawn) , TGI reported as > 100 µM

Kindly note the recorded TGI for CC1CC(Br)C(=O)O1 (stereo not drawn) , which is > 100 µM

====

test system: ACHN renal; experiment: NCI tumour cell line growth inhibition, 48 h
TGI values by entry

Examples with their reported TGI follow.
COc1cccc(/C=C\c2ccnc3ccccc23)c1    > 10 µM
Cc1cc2cc3ccccc3cc2c(=O)[nH]1    > 10 µM
Cn1cnc2c1c(=O)n(CCNCCO)c(=O)n2C    > 100 µM
O=C1CSC(c2ccccc2O)N1c1nc2cc3sc(N4C(=O)CSC4c4ccccc4O)nc3cc2s1 (stereo unspecified)    > 100 µM
N#C/C(C(=O)Nc1ccc(Cl)cc1)=C(/N)N1CCOCC1    > 100 µM

Moving on to the next compound.
TGI for COC(CC1(OC)OC(=O)C=C1N)OC (stereo unspecified) is > 100 µM

====

Form field: TGI (one value per entry).
test system: MDA-MB-435; assay: NCI tumour cell line growth inhibition, 48 h

Example entries begin here.
CC(=O)Oc1ccc(/C=C/C(=O)OCCOC(=O)/C=C/c2ccc(OC(C)=O)c(OC(C)=O)c2)cc1OC(C)=O    28 µM
Oc1ccc(-c2nc3cc(F)ccc3s2)cc1    43.1 µM
Cn1ccoc1=Nc1ccc(Cl)c(Cl)c1    > 10 µM
COc1ccc2c(c1)CCc1c-2n(CCN2CCOCC2)c2ccc(OC)cc12    > 100 µM
CCCCCC(=Nc1n[nH]nc1C(N)=O)OCC    > 100 µM

Note to self: TGI recorded for O=c1c2cc(O)c(O)cc2oc2cc(O)c(C3OC(CO)C(O)C(O)C3O)c(O)c12 (centres undefined) was > 100 µM

The recorded TGI for entry CC1CC(Br)C(=O)O1 (centres undefined) equals > 100 µM

# TGI (compound: `O=C1N=C(Nc2nc(-c3csc(NC4=NC(=O)/C(=C\c5ccc(Cl)cc5)S4)n3)cs2)S/C1=C/c1ccc(Cl)cc1` ) is > 50 µM

For reference, reported TGI for `c1ccc([P+](c2ccccc2)(c2ccccc2)c2ccc(-c3ccc([P+](c4ccccc4)(c4ccccc4)c4ccccc4)cc3)cc2)cc1` stands at 84.5 µM

====

tested on: SF-539 CNS; assay: NCI tumour cell line growth inhibition, 48 h
readout_label: TGI (µM)
API: value field is a number in µM; no unit string.

Worked examples follow.
Cc1cccc(/C=N/NC(=S)N(C)CCc2ccccn2)n1    6.8
Fc1ccc(-c2nn3c(COc4ccc(Cl)cc4Cl)nnc3s2)cc1Oc1ccccc1    32.3
CS(=O)(=O)OCCN(CCOS(C)(=O)=O)c1ccc(/C=N/Nc2ncnc3nc[nH]c23)cc1    49.4

Shift focus to the following entry.
// returns TGI for `Cn1cnc([N+](=O)[O-])c1Sc1nc2ccc([N+](=O)[O-])cc2[nH]1` with SF-539 CNS; value = 44

Data credit: PubChem BioAssay (NCI)
